- System under test: KRAS G12C-BRAF complex (Homo sapiens (Human), UniProt P01116+P62937, G12C)
- Sequence (P01116-2 other isoform, or with tags, fused parts or gaps G12C): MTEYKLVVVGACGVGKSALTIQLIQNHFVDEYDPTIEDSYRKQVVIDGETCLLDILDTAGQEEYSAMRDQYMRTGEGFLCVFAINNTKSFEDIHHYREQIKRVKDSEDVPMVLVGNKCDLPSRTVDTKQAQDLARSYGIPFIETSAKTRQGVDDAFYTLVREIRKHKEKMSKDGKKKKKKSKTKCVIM
- Sequence (P62937 whole entry): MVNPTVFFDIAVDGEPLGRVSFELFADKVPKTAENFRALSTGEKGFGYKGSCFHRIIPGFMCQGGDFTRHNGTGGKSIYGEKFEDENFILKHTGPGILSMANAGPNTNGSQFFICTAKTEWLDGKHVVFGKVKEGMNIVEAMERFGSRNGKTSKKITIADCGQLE
- Measurement notes: KRAS G12C-BRAF NanoBit assay
- Assay type: cell-based
- Recorded conditions: HEK293 cells, 3 hours of incubation
Reported endpoint: pIC50
pIC50 is a log-scale quantity: -log10 of the concentration expressed in molar.

>>> endpoint_result("CCn1c(-c2cc(N3CCN(C)CC3)cnc2[C@H](C)OC)c2c3cc(c(F)cc31)-c1csc(n1)C[C@H](NC(=O)[C@H](C(C)C)N1CCC3(CN(C(=O)[C@H](F)Cl)C3)C1=O)C(=O)N1CCC[C@H](N1)C(=O)OCC(C)(C)C2 (atropisomer, axis not shown; (M)) [Example 29]")
4.96

Here is another compound to look at.
Qu. Please report the measured pIC50 for CO[C@@H](C)c1ncc(N2CCN(C)CC2)cc1-c1c2c3cc(c(F)cc3n1CC(F)(F)F)-c1csc(n1)C[C@H](NC(=O)[C@H](C(C)C)N(C)C(=O)C1(F)CCN(C(=O)[C@H](F)Cl)CC1)C(=O)N1CCC[C@H](N1)C(=O)OCC(C)(C)C2 (atropisomer, axis not shown; (M)) [Example 10]
Ans. 8.40

Data origin: patent US20250206761A1
